These data points were gathered from PubChem BioAssay.

# growth inhibition values compiled below
# Method notes: inhibition of 3D7 malaria parasite growth – strain 3D7 (AID 2306);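 further: 0% = DMSO wells and 100% = chloroquine plus artemisinin control wells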
# Condition parameters: P. falciparum 3D7 erythrocytic growth, LDH absorbance, 72 h; at 2 µM; active compounds read high
Measured endpoint: growth inhibition (%)

> print(dat)
                            compound.smiles  measured.endpoint  numeric.readout
1  CCN1CCC(N(Cc2ccc(-c3ccc(C(F)(F)F)cc3)cc2)C(=O)Cn2c(CCc3cccc(F)c3F)cc(=O)c3c2CCC3)CC1  growth inhibition               89
2  COc1cc(Br)c(S(=O)(=O)n2cc(CN3CCC(N)CC3)c3cc(Cl)ccc32)cc1OC  growth inhibition               99
3  O=C(/C=C/c1ccc(I)cc1)NCCCCCN1CCC(c2c[nH]c3ccccc23)CC1  growth inhibition               95
4  Clc1cc(Cl)c2cc(CN[C@H]3CCC[C@@H]3CNc3nc4ccccc4[nH]3)[nH]c2c1  growth inhibition               99

---

# growth inhibition values compiled below
# Method notes: inhibition of 3D7 malaria parasite growth – strain 3D7 (AID 2306);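 further: 0% = DMSO wells and 100% = chloroquine plus artemisinin control wells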
# Condition parameters: P. falciparum 3D7 erythrocytic growth, LDH absorbance, 72 h; at 2 µM; active compounds read high
Measured endpoint: growth inhibition (%)

> print(dat)
                                   molecule  units.of.measure  numeric.readout
1  COc1ccc2nccc([C@@H](O)CN3CCC(NC(=O)c4ccc(Cl)c(Cl)c4)CC3)c2c1                 %               96
2  Cc1cc(Nc2cccc(C(F)(F)F)c2)nc(Nc2cccc(C(F)(F)F)c2)n1                 %              100
3  N#Cc1cc(C(=O)Nc2ccccc2)c(N)nc1SCC(=O)Nc1ccc(Br)cc1                 %              101
4  CN(C)CCCOc1ccc(CN2CC[C@H](NC(=O)c3ccc(Cl)c(Cl)c3)C2)c2ccccc12                 %              101
5  COc1cc(OCCCN(C)Cc2ccc(OC)c(OC)c2)ccc1NC(=O)c1cccc2c(=O)c3cccc(F)c3[nH]c12                 %               94
6  COc1ccc(Oc2ccccc2CNCC2CCN(CC3CCCCC3)CC2)cc1                 %               85
7  COc1ccc2nccc(N(C)CC3(O)CCC(NCc4cc5c(cn4)OCCO5)CC3)c2n1 (centres undefined)                 %               99
8  CC(Cc1ccc(CNC(=O)NCc2ccc(CC(C)NCCc3cccc(Cl)c3)cc2)cc1)NCCc1cccc(Cl)c1 (centres undefined)                 %              100
9  CS(=O)(=O)Cc1ccc(Nc2nccc(NC3CCN(c4nccc(C(F)(F)F)n4)CC3)n2)cc1                 %               88

---

# Study target: Calcium-dependent protein kinase 4 (Plasmodium falciparum (isolate 3D7)) (UniProt Q8IBS5)
# Sequence (Q8IBS5 whole entry, looked up): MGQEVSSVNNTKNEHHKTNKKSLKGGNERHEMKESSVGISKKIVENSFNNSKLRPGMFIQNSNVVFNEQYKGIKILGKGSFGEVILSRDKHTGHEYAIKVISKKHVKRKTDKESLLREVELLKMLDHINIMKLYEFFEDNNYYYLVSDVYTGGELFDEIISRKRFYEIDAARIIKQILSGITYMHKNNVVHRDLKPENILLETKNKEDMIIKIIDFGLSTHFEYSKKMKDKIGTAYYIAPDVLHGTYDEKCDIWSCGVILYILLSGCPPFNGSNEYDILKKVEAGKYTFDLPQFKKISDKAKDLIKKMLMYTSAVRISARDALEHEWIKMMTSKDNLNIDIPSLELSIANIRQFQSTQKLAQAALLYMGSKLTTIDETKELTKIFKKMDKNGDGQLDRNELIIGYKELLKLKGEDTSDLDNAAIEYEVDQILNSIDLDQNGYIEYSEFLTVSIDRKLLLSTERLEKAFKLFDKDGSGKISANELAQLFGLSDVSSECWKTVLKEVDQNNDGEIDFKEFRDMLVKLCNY
# Method notes: PfCDPK4 kinase inhibitors, biochemical, TCAMS library (AID 1159588)
# Condition parameters: recombinant PfCDPK4, Kinase-Glo ATP depletion luminescence
Results with a measured potency or affinity are listed apart. The source made the active and inactive calls. The limit is not given here; nearly all actives have IC50 up to about 0.91 µM.
Measured endpoint: outcome

> print(dat)
                                    compound    result
 1  c1ccc2ncc(CNCCCCCCCCNCc3cnc4ccccc4c3)cc2c1  inactive
 2  OC(COCc1ccc(-c2ccccc2)cc1)CN1CCCCC1 (centres undefined)  inactive
 3  CCCC[C@@H](C(=O)NCCc1ccc(Cl)cc1)N1C(=O)CCC1C(=O)Nc1ccc(Cl)c(Cl)c1 (some centres undefined)  inactive
 4  O=C(Nc1ccc(-c2cccc(-c3nc4ccc(C(F)(F)F)cc4[nH]3)c2)cc1)Nc1ccc(Cl)c(Cl)c1  inactive
 5  CC(C)COc1ccc(Cl)cc1Cc1nc(-c2nc3ccc(CN4CCCC4)cc3[nH]2)co1  inactive
 6  CCCC(C)Nc1nc(C)cc(NCCC(=O)Nc2ccc(OC)cc2)n1 (centres undefined)  inactive
 7  CC(C)NCc1ccc(-c2cccc(NC(=O)c3cccc(C#N)c3)c2)cc1  inactive
 8  O=C(Nc1ccc(C(F)(F)F)cc1)c1ccc(NCCCN2CCCCCC2)c([N+](=O)[O-])c1  inactive
 9  O=C(Nc1ccc(Cl)c(Cl)c1)N1CCC(NCc2cccc([N+](=O)[O-])c2)CC1  inactive
10  Cc1cc(NCCCN2CCCC2=O)n2c(nc3ccccc32)c1C#N  inactive
11  CN1CCC(c2csc3ccc(NC(=O)Nc4ccc(-c5ccncc5)c5ccccc45)cc23)CC1  inactive
12  O=C(NC1CCCCN(Cc2ccccc2O)C1)c1cccc(C(F)(F)F)c1 (centres undefined)  inactive
13  O=C(Cn1c(SCc2cccc(F)c2F)cc(=O)c2ccccc21)N(CCn1ccnc1)Cc1ccc(-c2ccc(C(F)(F)F)cc2)cc1  inactive
14  CCN(CC)C(=NCCCCCCN=C(NC(N)=NCc1ccc(Cl)cc1Cl)N(CC)CC)NC(N)=NCc1ccc(Cl)cc1Cl  inactive
15  Cc1cc(CNC(=O)c2ccc(-c3ccc(-c4nc5ccc(C(F)(F)F)cc5[nH]4)s3)cc2)on1  inactive
16          CC1(C)N=C(N)NC(Nc2ccc(Cl)cc2)=N1  inactive
17  COc1ccc(Br)cc1C1Nc2ccc3ccccc3c2C2=C1C(=O)CC(c1ccccc1)C2 (centres undefined)  inactive
18  COc1ccc2ncc(C#N)c(CCN3CCC(NCc4ccc5c(c4)OCCO5)CC3)c2c1  inactive
19  Cc1ccc(C(=O)Nc2ccc(-c3nc4ccccc4[nH]3)cc2)cc1S(=O)(=O)N1CCOCC1  inactive
